biological target: Human M4 (Homo sapiens); construct: expressed in transfected cells; assay: mAChR M4 cell-based functional assay (calcium flux, potentiation of EC20 acetylcholine response), hM4-Gqi5 CHO-K1 cells; conditions: hM4-Gqi5 CHO-K1 cells, calcium flux, PAM of EC20 acetylcholine; read-out: Human M4 EC50
Sequence (P08173 whole entry): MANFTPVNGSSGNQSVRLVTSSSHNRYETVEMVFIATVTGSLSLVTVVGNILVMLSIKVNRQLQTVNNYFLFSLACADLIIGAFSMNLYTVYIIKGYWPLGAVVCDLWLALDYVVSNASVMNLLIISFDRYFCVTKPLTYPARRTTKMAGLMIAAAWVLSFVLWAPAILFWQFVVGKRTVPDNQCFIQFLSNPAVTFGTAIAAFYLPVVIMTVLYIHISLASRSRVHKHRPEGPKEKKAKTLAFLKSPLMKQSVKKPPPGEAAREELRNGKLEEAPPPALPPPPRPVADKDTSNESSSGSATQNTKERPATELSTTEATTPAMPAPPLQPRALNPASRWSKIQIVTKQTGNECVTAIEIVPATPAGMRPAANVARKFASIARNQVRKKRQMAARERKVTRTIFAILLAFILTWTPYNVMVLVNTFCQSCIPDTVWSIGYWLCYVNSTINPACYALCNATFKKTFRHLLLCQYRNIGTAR
pEC50: −log10 of the molar value.
readout.type: pEC50

// below: answered molecules
INSERT INTO results (molecule, measurement) VALUES
  ('Cc1c(N2CCc3ncc(-c4cnn(C5CCCCC5)c4)cc3C2)nn2cnnc2c1C [Compound 20]', 6.48),
  ('Cc1c(N2CCc3ncc(-c4cnn(C5CC5)c4)cc3C2)nn2cnnc2c1C [Compound 142]', 6.77),
  ('[2H]c1nnc2c(C)c(C)c(N3CCc4ncc(Nc5cc(F)cc(F)c5F)cc4C3)nn12 [Compound 73]', 6.94);

(1) Cc1cc2nncn2nc1N1CCc2ncc(-c3cnn(C)c3)cc2C1 [Compound 140]
(2) [2H]c1nnc2c(C)c(C)c(N3CCc4ncc(-c5cncs5)cc4C3)nn12 [Compound 78]
Ask | Compare the recorded pEC50 of 1 and 2 ; state which is larger. In your reply, give the label of the chosen option.
Reply | 2
(2: 7.19, 1: 6.43)

(I) Cc1cc2nncn2nc1N1CCc2ncc(-c3cnn(CC(C)C)c3)cc2C1 [Compound 147]
(II) Cc1cc2nncn2nc1N1CCc2ncc(-c3cncs3)cc2C1 [Compound 103]
Ask | Could you determine which record has the numerically smaller pEC50? Candidates: I and II API: response body contains the label of the selected item.
Reply | I

(a) Cc1c(N2CCc3ncc(C(=O)NCc4cccs4)cc3C2)nn2cnnc2c1C [Compound 121]
(b) Cc1c(N2CCc3ncc(Nc4cc(Cl)c(F)cc4F)cc3C2)nn2cnnc2c1C [Compound 45]
Ask | For the pair a and b , which member has the lower pEC50 number? Indicate which entry you chose by stating its label.
Reply | a

(I) Cc1cc2nncn2nc1N1CCc2ncc(-c3c(C)cnn3C)cc2C1 [Compound 135]
(II) Cc1c(N2CCc3ncc(-c4cc(-c5ccccc5)no4)cc3C2)nn2cnnc2c1C [Compound 132]
(III) Cc1nc(C)c(-c2cnc3c(c2)CN(c2nn4cnnc4c(C)c2C)CC3)s1 [Compound 61]
Ask | Put the molecules in ascending order of pEC50. Put the labels in the order asked and list them.
Reply | II, I, III

---

target: Human M4 (Homo sapiens); construct: expressed in transfected cells; assay: mAChR M4 cell-based functional assay (calcium flux, potentiation of EC20 acetylcholine response), hM4-Gqi5 CHO-K1 cells; conditions: CHO-K1; Table 3; Human M4; % ACh maximum at 30 μM; read-out: Emax (% ACh maximum at 30 μM)
readout.type: Emax at 30 µM (%)

INSERT INTO assay_data (chemical_string, measurement) VALUES
  ('Cc1c(N2CCc3ncc(-c4ccc(N5CCOCC5)nc4)cc3C2)nn2cnnc2c1C', 100),
  ('Cc1cc2nncn2nc1N1CCc2ncc(-c3ccc(C(F)(F)F)nc3)cc2C1', 80),
  ('Cc1c(N2CCc3ncc(-c4cnn(C5CCC5)c4)cc3C2)nn2c(C(F)(F)F)nnc2c1C', 76),
  ('Cc1c(N2CCc3ncc(Oc4ccc(F)cc4F)cc3C2)nn2cnnc2c1C', 93),
  ('Cc1ccc(-c2cnc3c(c2)CN(c2nn4cnnc4cc2C)CC3)cn1', 93),
  ('Cc1cc2nnc(C(F)(F)F)n2nc1N1CCc2ncc(Oc3cccc(F)c3F)cc2C1', 100),
  ('Cc1c(N2CCc3ncc(-c4ccc(C5CC5)nc4)cc3C2)nn2c(C(F)(F)F)nnc2c1C', 62),
  ('Cc1ccc(-c2cnc3c(c2)CN(c2nn4c(C(F)(F)F)nnc4c(C)c2C)CC3)cn1', 78),
  ('Cc1c(N2CCc3ncc(OCc4ccccc4)cc3C2)nn2cnnc2c1C', 74);

Attribution: patent US20250002507A1
